procedure-text: NCI Yeast Anticancer Drug Screen. Data for the mec2-1 strain (AID 157)
conditions-used: S. cerevisiae mec2-1 strain, at 50.0 µM, active compounds read high
Compounds without any hit were thinned out: in the full panel of roughly 79,000, 15% have a hit.
Given measured growth inhibition, output Condition met if it is greater than or equal to 70% and Condition not met if not.

-- ask Evaluate CC1(Cl)CC(C)(/C=C/Cl)C(Cl)CC1Cl (stereo not given) : growth inhibition at minimum 70%?
-- reply Condition not met

-- ask Could you tell me if the measured growth inhibition of O=C(c1ccccc1)C1CCCN(CCc2ccccc2)C1 (stereo not given) reaches 70% or more?
-- reply Condition not met

-- ask Hello, I need to know if "CCc1cc2c(cc1-c1csc(C/C(N)=N/O)n1)C(C)(C)CCC2(C)C" has measured growth inhibition not below 70%. Thanks!
-- reply Condition met

###

procedure-text: NCI Yeast Anticancer Drug Screen. Data for the wt1 strain (AID 149);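 note: 0% = growth of vehicle-treated wt1 cultures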
conditions-used: S. cerevisiae wt1 strain (SPY 50644) growth inhibition; at 3.7 µM; active compounds read high
Compounds without any hit were thinned out: in the full panel of roughly 79,000, 15% have a hit.
assay-metric: growth inhibition (%)
Give bare numbers, in %.

// batch mode: one growth inhibition value per listed entry
1. CS(=O)(=O)OCCN(CCOS(C)(=O)=O)c1ccc(C=O)cc1
2. CN(N=O)C(=O)NNC(=O)N(C)N=O
3. CCC1(O)C(=O)OCc2c1cc1n(c2=O)Cc2cc3ccccc3nc2-1 (stereo not given)
4. Cc1cccc(NC(=O)CBr)c1
5. CCOC(=O)C1C2c3ccccc3C(c3ccccc32)C1C(=O)OCC (stereo not given)
6. CCN(CCCl)CCCCNc1c2ccccc2nc2ccc(OC)cc12
7. C[CH2][Sn]([CH2]C)([O]S(C)(=O)=O)[O]S(C)(=O)=O

-- reply
1: -19; 2: 1; 3: 28; 4: 24; 5: -2; 6: 8; 7: -9

Can you give me growth inhibition for all of these, one by one?
1. Cc1ccc2nc3sc(=O)sc3nc2c1
2. O=C(c1ccccc1)C1C(c2ccccc2[N+](=O)[O-])N1C1CCCCC1 (stereo not given)
3. OC(c1ccc(Br)cc1)C(Cl)(Cl)Cl (stereo not given)

-- reply
1. 22
2. 1
3. -11

###

procedure-text: NCI Yeast Anticancer Drug Screen. Data for the rad14 strain (AID 159);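 note: 0% = growth of vehicle-treated control cultures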
conditions-used: S. cerevisiae rad14 strain growth inhibition; at 11.0 µM; active compounds read high
Compounds without any hit were thinned out: in the full panel of roughly 79,000, 15% have a hit.
// FALSE strictly below 20% in growth inhibition; TRUE otherwise

-- ask Is growth inhibition at least 20%? Consider "O=C(Nc1cc(Cl)ccc1Cl)C(Cl)(Cl)Cl"
-- reply FALSE

Others:
-- ask Check this compound for growth inhibition at or above 20%: "CC(=O)O/C(=C1\C[C@H]2[C@@H]3CC=C4C[C@@H](OC(C)=O)CC[C@]4(C)[C@H]3CC[C@]2(C)C1=O)C(F)(F)F"
-- reply FALSE

-- ask Textbook exercise: given the entry CCNC(=O)OCC1C2=C(C(=O)C(C)=C(N)C2=O)N2CC3C(N3C)C12OC (configuration not stated) , state whether its growth inhibition is greater than or equal to 20%.
-- reply FALSE

-- ask Check the entry "NNc1ccccc1Cl" : does growth inhibition equal or exceed 20%?
-- reply TRUE

Just for reference, PubChem BioAssay (NCI) is where these values come from.
